- testProtocol: yeast display, Sf9 membrane polyspecificity reagent, FACS + sequencing; frameworks hold sequencing errors
readoutType: polyreactivity (PSR sort gate)

Some entries whose results are on file:
sequenceEntry	polyreactivity (PSR sort gate)
QVQLVESGGGLVQAGGSLRLSCAASGSTFRSYAMGWYRQAHGKERELVAAITSGGSTYYADSVKGRFTISRDNAKNTVYLQMNSLKPEDTAVYYCNARRRTRNVPGKRLRGGIYVYWGQGTQVTVSS	high polyreactivity
QVQLVESGGGLVQAGGSLRLSCAASGFIFFRYAMGWYRQAPGKERELVAAISTRTGITYYSDSVKGRFTISRDNAKNNVYLQMNRLKPEDTAVYDRNVLRSHSLYPFWKYDYWGQGTQVTVSS	high polyreactivity
QVQLVESGGGLVQAGGSLRLSCAASGSIFKYYAMGWYRQAPGKERELVAAIDWSGGNTYADSVKGRFTISRDNAKNTVYLQMNSLKPEDTAVYYCNAPGFRRLWGFGYDYWGQGTQVTVSS	high polyreactivity
QVQLVESGGGLVQAGGSLRLSCAASGRTFVDNGMGWYRQAPGKERELVAAITYSGGGTYYADSVKGRFTISRDNAKNTVYLQMNSLKPEDTAVYYCNAELGPVDYYGGVTPEYDYWGQGTQVTVSS	low polyreactivity

What does the data say about its polyreactivity (PSR sort gate)? Entry: QVQLVESGGGLVQAGGSLRLSCAASGYIFFRNAMGWYRQAPGKEREFVAAIRFSGGNTYYADSVKGRFTISRDNAKNTVYLQMNSLKPEDTAFYYCAADKVRQGHYWTPMEYWGQGTQVTVSS
low polyreactivity

FYI, the data here is from the nanobody polyreactivity screen of Harvey et al. (2022).
